# Test system: MDA-MB-231 cells
# TEST DESCRIPTION: MTT cytotoxicity assay, MDA-MB-231
# Format: cell-based
# TEST CONDITIONS: Homo sapiens, MDA-MB-231; MTT, 48 h, three independent trials; read-out: IC50 (μM) ± SD MDA-MB-231
This listing pairs compounds with measured log10 of IC50.
Units before log transform: µM; reported quantity: IC50; transform: log10.

{"columns": ["COMPOUND", "log10 of IC50"],
 "data": [
  ["Nc1cc(=O)[nH]n1C(=O)CNC(=O)Cn1nc(Cc2ccccc2)c2ccccc2c1=O [Compound 12d]", -0.24],
  ["NNC(=O)CNC(=O)Cn1nc(Cc2ccccc2)c2ccccc2c1=O", 0.13],
  ["COC(=O)CNC(=O)Cn1nc(Cc2ccccc2)c2ccccc2c1=O", 1.42],
  ["COC(=O)C(NC(=O)CNC(=O)Cn1nc(Cc2ccccc2)c2ccccc2c1=O)C(C)C (stereo not drawn) [Compound 11d]", -0.04]
]}

Exercise: State the recorded log10 of IC50 for this entry: O=C(Cn1nc(Cc2ccccc2)c2ccccc2c1=O)NCC(=O)N1CCOCC1 [Compound 10h]
Solution: 0.36

Exercise: How about COC(=O)CNC(=O)CNC(=O)Cn1nc(Cc2ccccc2)c2ccccc2c1=O [Compound 11a] ?
Solution: 0.86

Exercise: Also C=CCNC(=O)CNC(=O)Cn1nc(Cc2ccccc2)c2ccccc2c1=O [Compound 10f] ?
Solution: 0.93

Exercise: How about this compound: O=C(CNC(=O)Cn1nc(Cc2ccccc2)c2ccccc2c1=O)NCc1ccccc1 [Compound 10a]
Solution: 0.81

Exercise: And the next one, O=C(Cn1nc(Cc2ccccc2)c2ccccc2c1=O)N1CCOCC1 ?
Solution: 1.33

Exercise: Now give it for C/C(=N\NC(=O)CNC(=O)Cn1nc(Cc2ccccc2)c2ccccc2c1=O)c1ccco1 [Compound 12c] too.
Solution: 0.28

Exercise: Quick one: O=C(Cn1nc(Cc2ccccc2)c2ccccc2c1=O)NCc1ccccc1
Solution: 1.30
